meta.source: PubChem BioAssay AID1259343

# assay-remarks: Mycobacterium tuberculosis growth inhibition, primary screen (AID 1259343)
# condition-summary: at 10 µM, stronger effect = higher value
Screen size: about 6,200 compounds; about 2,900 (47%) were called active. So high a share suggests a set chosen from earlier hits. This is one part of the list.
Please enter Condition met where inhibition is greater than or equal to 60%, and Condition not met where it is lower.

{"compound": "Fc1ccc(CNc2ncnc3c2cnn3-c2ccc(F)cc2)cc1", "label-class": "Condition not met"}
{"compound": "COc1ccc(OCc2nc(C(=O)N3CCC3c3ccc(F)cc3)co2)cc1 (stereo unspecified)", "label-class": "Condition not met"}
{"compound": "Cc1cccc(CN2CCC(C(=O)Nc3cccc(-c4cccc(F)c4)c3)CC2)n1", "label-class": "Condition met"}
{"compound": "CCn1cc(CNC(=O)CCc2nnc(CCC3CCCCC3)o2)cn1", "label-class": "Condition met"}
{"compound": "CC(Cc1cnccn1)NC(=O)CCc1nnc(CCC2CCCCC2)o1 (stereo unspecified)", "label-class": "Condition not met"}

----------
# assay-remarks: Mycobacterium tuberculosis growth inhibition, primary screen (AID 1259343)
# condition-summary: at 10 µM, stronger effect = higher value
In all, about 6,200 compounds went through this assay and about 2,900 (47%) were called active. The set was probably picked from earlier hits. The list shows a part of the results.
The molecules listed here are annotated with their inhibition.

{"compound-smiles": "CCN1CCc2c(sc(NC(=O)c3cccs3)c2-c2nc3ccccc3s2)C1", "uom": "%", "inhibition": 52}
{"compound-smiles": "CCOC(=O)CNc1c(-c2ccc(C(F)(F)F)cc2)nc2ccc(Br)cn12", "uom": "%", "inhibition": 24.2}
{"compound-smiles": "CN1CCc2c(sc(NC(=O)C(C)(C)C)c2-c2nc3ccccc3s2)C1", "uom": "%", "inhibition": 52.2}
{"compound-smiles": "CN1CCc2c(sc(NC(=O)CS(=O)(=O)c3ccccc3)c2-c2nc3ccccc3s2)C1", "uom": "%", "inhibition": 25.4}
{"compound-smiles": "COc1ccc(OC)c(-c2nc3ccc(Br)cn3c2NC2CCCCC2)c1", "uom": "%", "inhibition": 10.8}

----------
# assay-remarks: Mycobacterium tuberculosis growth inhibition, primary screen (AID 1259343)
# condition-summary: at 10 µM, stronger effect = higher value
Hit rate of the full screen: of about 6,200 compounds, about 2,900 (47%) were called active. So high a share suggests a set chosen from earlier hits. The list shows a part of the results.

{"compound": "COc1ccc(C=C2SC(=S)NC2=O)cc1F", "inhibition / %": 86.7}
{"compound": "Cn1nc(C(=O)Nc2ccc(-c3nccs3)cc2)ccc1=O", "inhibition / %": 85.9}
{"compound": "O=c1c(Cl)c(N2CCN(c3ccccc3)CC2)cnn1Cc1ccccc1Cl", "inhibition / %": 17.9}
{"compound": "CNC(=O)NC(=O)C(C)Sc1nnc(SCC(C)C)s1 (configuration not stated)", "inhibition / %": 89.7}
{"compound": "COc1ccc(-c2cc(C(=O)O)n3nc(C(C)(C)C)cc3n2)cc1", "inhibition / %": 53.5}
{"compound": "CNC(=O)NC(=O)C(C)Sc1nnc(Nc2ccc(C)cc2)s1 (configuration not stated)", "inhibition / %": 54.2}
{"compound": "CCc1ccc(C(O)c2ncc(-c3cccc(C(F)(F)F)c3)[nH]2)cc1 (configuration not stated)", "inhibition / %": 34}
{"compound": "O=C1NC(=S)SC1=Cc1ccc(F)cc1", "inhibition / %": 32.6}
{"compound": "N#CC(c1ccc(Cl)cc1Cl)c1cnnc2ccccc12 (configuration not stated)", "inhibition / %": -8.73}
{"compound": "O=S(=O)(/C=C/c1ccccc1)Nc1ccc(Cl)cc1F", "inhibition / %": 81.5}
{"compound": "CCCC(C)C(=O)Nc1ccc(-c2nccs2)cc1 (configuration not stated)", "inhibition / %": 89.9}
{"compound": "Cc1ccccc1OCC(=O)N1CCN(c2ncnc3c2nnn3-c2cccc(F)c2)CC1", "inhibition / %": 67.9}
{"compound": "O=C(OCC1CC2CCC1C2)C(c1ccccc1)n1cccn1 (configuration not stated)", "inhibition / %": 92.2}
{"compound": "COc1cccc(OC)c1OCCCOc1ccc(C)cc1Cl", "inhibition / %": 47.8}
{"compound": "Cc1ccc(-c2cnc(C(O)c3cc(C)cc(C)c3)[nH]2)cc1 (configuration not stated)", "inhibition / %": 61.7}
{"compound": "CCOC(=O)C(=O)N1CCC(c2nc(-c3ccc(F)c(F)c3)no2)CC1", "inhibition / %": 75.8}
{"compound": "CCOc1ccc(-c2ccnc(N3CCN(C(=O)C(=O)OC)CC3)n2)cc1", "inhibition / %": 53.2}
{"compound": "O=C(CSc1nnc(SCc2ccccc2)s1)NN=Cc1ccc([N+](=O)[O-])cc1", "inhibition / %": 83.1}
{"compound": "CCCc1ccc(C(O)c2ncc(-c3ccccc3F)[nH]2)cc1 (configuration not stated)", "inhibition / %": 21.1}
{"compound": "O=S(=O)(/C=C/c1ccccc1)NC1CCCCC1", "inhibition / %": 17}
{"compound": "CN(CC1CCCO1)S(=O)(=O)c1ccc(C(=O)Nc2ccc3sccc3c2)cc1 (configuration not stated)", "inhibition / %": 92}
{"compound": "Fc1ccccc1Cc1noc(CN2CCN(c3nc4ccccc4s3)CC2)n1", "inhibition / %": 60.6}
{"compound": "CCc1ccc(C(O)c2ncc(-c3ccc(C)cc3)[nH]2)cc1 (configuration not stated)", "inhibition / %": 1.21}
{"compound": "Cc1ccc(C(O)c2ncc(-c3ccc(Cl)cc3)[nH]2)cc1 (configuration not stated)", "inhibition / %": 36.3}
{"compound": "O=C1NC(=S)SC1=Cc1cc(O)c(O)c(Cl)c1", "inhibition / %": 88.3}
{"compound": "CCOc1ccc(-c2ccc(=O)n(Cc3cc(C)ccc3C)n2)cc1", "inhibition / %": -12.8}
{"compound": "COc1cccc(OC)c1OCCCOc1ccc(Cl)cc1Cl", "inhibition / %": 89.4}
{"compound": "CCCCCC(=O)NN=Cc1ccc([N+](=O)[O-])cc1", "inhibition / %": 100}
{"compound": "COC(=O)CNC(=O)c1ccc([N+](=O)[O-])o1", "inhibition / %": 44.5}
{"compound": "CCCCCCC(=O)NN=Cc1ccc([N+](=O)[O-])cc1", "inhibition / %": 77.5}
{"compound": "CSc1nnc(SCc2ccc([N+](=O)[O-])cc2)s1", "inhibition / %": -12.4}
{"compound": "Cc1ccc(OCC2CCCN(Cc3ccc(C#CCO)s3)C2)cc1 (configuration not stated)", "inhibition / %": 82.9}
{"compound": "CC(C)CSc1nnc(SCC(=O)Nc2ccc(C#N)cc2)s1", "inhibition / %": -25.3}
{"compound": "CC1CCN(C(=O)CSc2nnc(C(C)Oc3ccc(F)cc3)o2)CC1 (configuration not stated)", "inhibition / %": -37.3}
{"compound": "CCOC(=O)C1CCN(C2CCN(c3nncc(-c4ccccc4)n3)CC2)CC1", "inhibition / %": -15.5}
{"compound": "CCCc1ccc(C(O)c2ncc(-c3ccccc3)[nH]2)cc1 (configuration not stated)", "inhibition / %": 36.8}
{"compound": "CCC(C)c1ccc(Nc2nc(C)c(C)s2)cc1 (configuration not stated)", "inhibition / %": 41.7}
{"compound": "CCN(CC)CCCC(C)NC(=O)c1cc(-c2ccc(OC)cc2)nc2cc(C(C)(C)C)nn12 (configuration not stated)", "inhibition / %": 58.1}
{"compound": "Cc1ccccc1OCC1CCCN(Cc2nc(Cc3ccccc3F)no2)C1 (configuration not stated)", "inhibition / %": 47}
{"compound": "Cc1cc(C(O)c2ncc(-c3ccc(Cl)cc3)[nH]2)ccc1F (configuration not stated)", "inhibition / %": 84.8}
{"compound": "CCNC(=O)NC(=O)C(C)Sc1nnc(Nc2ccc(C)cc2)s1 (configuration not stated)", "inhibition / %": 99.2}
{"compound": "CC(C)(C)c1ccc(C=NOCc2ccc([N+](=O)[O-])cc2)cc1", "inhibition / %": -20.2}
{"compound": "CCc1ccc(C(O)c2ncc(-c3cccc(C)c3)[nH]2)cc1 (configuration not stated)", "inhibition / %": 56.7}
{"compound": "CN[C@@H]1C[C@@H](c2ccc(Cl)c(Cl)c2)c2ccccc21", "inhibition / %": 48}
{"compound": "Cc1cc(Cn2ccnc2-c2cc3ccc(F)cc3[nH]c2=O)on1", "inhibition / %": -7.89}
{"compound": "O=C1/C(=C\\c2ccc(O)c(Cl)c2)CS(=O)(=O)C/C1=C/c1ccc(O)c(Cl)c1", "inhibition / %": -0.82}
{"compound": "c1ccc(CCc2noc(CN3CCN(c4nc5ccccc5s4)CC3)n2)cc1", "inhibition / %": 89.5}
